- measured.target: T1, ECF22_1147
- T1 chain: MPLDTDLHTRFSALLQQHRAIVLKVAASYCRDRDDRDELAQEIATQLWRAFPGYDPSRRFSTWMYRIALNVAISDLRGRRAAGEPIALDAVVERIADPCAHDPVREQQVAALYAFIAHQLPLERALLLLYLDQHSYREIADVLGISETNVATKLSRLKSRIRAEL
measurement.kind: fold repression
Please reply with the number alone, leaving off any unit.

Query: Which fold repression value belongs to AS27_4265 (protein) MTGHPDVAEIADLAEGLLPTTRTTEVRQHLESCELCADVYASLTEIQGLLGTLPAPAPMPDDVAARIDAALAAEPPLGIADGTRVSRETSTPADRPAGHARPSSTGPGRKDRRRGGRRRIAVLGAVAAAAAIGIGSVVVSSLTEDSSSGNTAREQQTAIADTFSEGRLKDRVTNLVADGSAENGSRTPRSFGMESENGGETAENHVFKQPTVPECIRKGIGRDDAVIATEPGVYKGREALLVVLPDATNDTQVTAYIVETACVDQPAVGKAKILLEHSYARS ?
Result: 8.51

Query: Which fold repression value belongs to AS22_1147 (protein) MELDDIAVAWRSLEQRLDQHAALAGQVLGDLRSHAARAHLRPLWLSQSAQLLCAIALSGLVAHSWLAFPEQAAAIVGGVLLQIWCVALAASAARQLWLLSQLDFARPLLQTQRALAQLRRWRTRVAPWLGVAFWVLWVAVADAAWRALTGRSLPYAWLLCNLLVGVLGGIGTWLGYRRLQRSGHPWLERLDTVHAGRSVARTETLLEQIARFQRE ?
Result: 6.19

Query: Which fold repression value belongs to AS15_436 (protein) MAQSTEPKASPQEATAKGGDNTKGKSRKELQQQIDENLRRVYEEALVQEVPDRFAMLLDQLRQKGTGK ?
Result: 6.02

Query: Which fold repression value belongs to AS22_4450 (protein) MELDDMKHAWQTLEQRLDQQAAQTGQLLGVVHEETVRSSLRPLWVAQTAQLLCALALAIVSARSWIPHTDQPVAVIGGVLLQAWCMALAISAMVQLQLLTQFNVAGPLLRTQHALARLRRWRTRVAPWLGVAFWVLWIAVADALWRALTGQTLPTDWLVLNLLVGVAGGIGTWLGFRRLQRAQHPWLERIDRAHAGTGVIRAERMLEEIARFQRD ?
Result: 5.73

Query: Which fold repression value belongs to AS31_34 (protein) MNKEKLSDHLKSEWKKIDQTANPSIPNQKELLHQLSQMKAEYRKKLLQEIILFVFCALMVVSAAILAFTQAPAVFIVLQVCVLAVLPILIAAEKKRHLGECEVKRG ?
Result: 3.62

Query: Which fold repression value belongs to AS37_2513 (protein) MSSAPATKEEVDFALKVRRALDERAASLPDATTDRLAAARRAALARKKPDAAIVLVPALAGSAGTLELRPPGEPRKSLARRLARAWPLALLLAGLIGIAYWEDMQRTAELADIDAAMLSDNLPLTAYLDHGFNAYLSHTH ?
Result: 8.31
